# target_or_system: UniProt:P21397
# Sequence (P21397 whole entry): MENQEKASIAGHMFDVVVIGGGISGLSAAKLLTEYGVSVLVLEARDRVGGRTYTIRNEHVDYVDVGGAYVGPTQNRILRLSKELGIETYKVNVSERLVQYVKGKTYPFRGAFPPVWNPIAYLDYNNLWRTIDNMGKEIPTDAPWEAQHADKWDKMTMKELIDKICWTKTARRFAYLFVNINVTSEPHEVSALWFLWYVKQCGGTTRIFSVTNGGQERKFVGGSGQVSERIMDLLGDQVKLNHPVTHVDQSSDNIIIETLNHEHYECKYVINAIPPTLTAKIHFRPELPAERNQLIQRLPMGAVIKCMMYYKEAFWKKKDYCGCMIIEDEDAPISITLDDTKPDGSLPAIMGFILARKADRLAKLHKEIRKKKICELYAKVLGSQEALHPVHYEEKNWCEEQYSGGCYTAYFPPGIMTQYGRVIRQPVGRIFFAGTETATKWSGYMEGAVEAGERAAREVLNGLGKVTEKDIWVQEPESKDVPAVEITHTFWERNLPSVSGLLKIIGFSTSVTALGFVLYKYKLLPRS
# run_description: Inhibition of recombinant MAO-A (unknown origin) at 20 uM preincubated for 30 mins followed substrate addition by Amplex Red reagent based fluorescence analysis relative to control
Response key: true (1) means inhibition at 20 µM >= 3%; false (0) means inhibition at 20 µM < 3%.

Use the examples below as a reference point.
[[record]]
smiles_code = "C#CCCCOc1c(CN2CCc3ccccc3C2)cc(-c2cc(=O)c3ccccc3o2)cc1OC"
qualitative_label = "true (1)"

[[record]]
smiles_code = "C#CCCOc1c(CN2CCN(c3ccccc3)CC2)cc(-c2cc(=O)c3ccccc3o2)cc1OC"
qualitative_label = "true (1)"

[[record]]
smiles_code = "C#CCCCOc1c(CN2CCCCC2)cc(-c2cc(=O)c3ccccc3o2)cc1OC"
qualitative_label = "false (0)"

[[record]]
smiles_code = "C#CCCCOc1c(CN2CCN(Cc3ccccc3)CC2)cc(-c2cc(=O)c3ccccc3o2)cc1OC"
qualitative_label = "true (1)"

[[record]]
smiles_code = "C#CCCCOc1c(CN2CCN(c3ccccc3)CC2)cc(-c2cc(=O)c3ccccc3o2)cc1OC"
qualitative_label = "false (0)"

[[record]]
smiles_code = "C#CCCCOc1ccc(-c2cc(=O)c3ccccc3o2)cc1CN1CCCCC1"
qualitative_label = "false (0)"


Please find the next compound below.
// inclusive: inhibition at 20 µM at least 3%? input: "C#CCCOc1c(CN2CCOCC2)cc(-c2cc(=O)c3ccccc3o2)cc1OC" true (1)

====

# target_or_system: Cholinesterase (Homo sapiens, UniProt P06276)
# Sequence (P06276 whole entry): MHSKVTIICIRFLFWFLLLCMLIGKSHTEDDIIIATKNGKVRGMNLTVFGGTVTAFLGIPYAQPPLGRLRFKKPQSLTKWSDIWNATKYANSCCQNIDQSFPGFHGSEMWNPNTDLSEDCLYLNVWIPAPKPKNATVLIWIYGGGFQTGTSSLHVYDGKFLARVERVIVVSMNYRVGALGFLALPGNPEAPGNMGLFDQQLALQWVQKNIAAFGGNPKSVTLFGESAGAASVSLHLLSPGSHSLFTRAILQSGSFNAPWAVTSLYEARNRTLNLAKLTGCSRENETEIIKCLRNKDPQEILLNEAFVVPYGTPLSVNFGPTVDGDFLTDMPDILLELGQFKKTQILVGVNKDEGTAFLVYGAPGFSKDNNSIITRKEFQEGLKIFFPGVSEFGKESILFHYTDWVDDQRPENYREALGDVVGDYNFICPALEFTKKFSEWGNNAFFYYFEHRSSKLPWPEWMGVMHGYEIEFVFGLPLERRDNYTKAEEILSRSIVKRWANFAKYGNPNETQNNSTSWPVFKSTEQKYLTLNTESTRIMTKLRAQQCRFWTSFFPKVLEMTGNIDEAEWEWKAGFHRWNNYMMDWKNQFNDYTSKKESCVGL
# run_description: Inhibition of recombinant BuChE (unknown origin) using BTCI as substrate at 20 uM preincubated for 30 mins followed by substrate addition by TECAN multiplate reader analysis relative to control
Give measured inhibition for each item. Keep answers brief.
Numbers only, in %.

[[record]]
smiles_code = "C#CCOc1ccc(-c2cc(=O)c3ccccc3o2)cc1CN1CCOCC1"
readout_name = "inhibition"
meas_value = 4.21

[[record]]
smiles_code = "C#CCCCOc1ccc(-c2cc(=O)c3ccccc3o2)cc1CN1CCCCC1"
readout_name = "inhibition"
meas_value = 87.9

[[record]]
smiles_code = "C#CCCCOc1c(CN2CCOCC2)cc(-c2cc(=O)c3ccccc3o2)cc1OC"
readout_name = "inhibition"
meas_value = 3.35

[[record]]
smiles_code = "C#CCCCOc1c(CN2CCc3ccccc3C2)cc(-c2cc(=O)c3ccccc3o2)cc1OC"
readout_name = "inhibition"
meas_value = 51.5

[[record]]
smiles_code = "C#CCCCOc1c(CN2CCOCC2)cc(-c2cc(=O)c3ccccc3o2)cc1CN1CCOCC1"
readout_name = "inhibition"
meas_value = 1


Hi there! I need inhibition for each item below, if you can.
1. C#CCCCOc1c(CN2CCN(c3ccccc3)CC2)cc(-c2cc(=O)c3ccccc3o2)cc1OC
2. C#CCCOc1c(CN2CCOCC2)cc(-c2cc(=O)c3ccccc3o2)cc1OC
3. C#CCOc1c(CN2CCOCC2)cc(-c2cc(=O)c3ccccc3o2)cc1OC

[1.69, 3.11, 1.17]

Value sought for every listed compound: inhibition.
1. C#CCOc1c(CN2CCCCC2)cc(-c2cc(=O)c3ccccc3o2)cc1OC
2. C#CCCCOc1c(CN(C)Cc2ccccc2)cc(-c2cc(=O)c3ccccc3o2)cc1OC

[89.9, 17.6]
